Tested Target: TR-β (Homo sapiens)
Sequence (P10828 whole entry): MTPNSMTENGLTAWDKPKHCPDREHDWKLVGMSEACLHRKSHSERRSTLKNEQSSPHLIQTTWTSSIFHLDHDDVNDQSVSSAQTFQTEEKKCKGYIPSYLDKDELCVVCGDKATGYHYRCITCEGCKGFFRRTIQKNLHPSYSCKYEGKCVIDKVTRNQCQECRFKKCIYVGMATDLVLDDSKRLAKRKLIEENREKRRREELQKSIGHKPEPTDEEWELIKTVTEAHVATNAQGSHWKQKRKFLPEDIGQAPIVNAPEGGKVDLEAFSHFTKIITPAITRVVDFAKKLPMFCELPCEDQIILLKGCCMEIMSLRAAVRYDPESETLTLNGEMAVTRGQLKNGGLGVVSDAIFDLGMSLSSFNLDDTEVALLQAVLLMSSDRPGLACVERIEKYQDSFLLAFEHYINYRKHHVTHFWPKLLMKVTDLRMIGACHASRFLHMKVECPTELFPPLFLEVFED
Method Description: In vitro TR-β activity (in-house protocol)
Format: cell-based
Run Conditions: Conc. 10 nM; read-out: TR-β Fold Induction w.r.t T3(100 nm)
Metric Name: fold induction at 0.01 µM
One number for each entry.

Consider the reported fold induction at 0.01 µM for these molecules:
Molecule | Numeric Readout
CC(C)c1cc(Oc2c(Cl)cc(N(CC(=O)O)CC(=O)O)cc2Cl)ccc1O | 27.8
CCOC(=O)N(CC(=O)O)c1cc(Cl)c(Oc2ccc(O)c(C(=O)c3ccc(Cl)s3)c2)c(Cl)c1 | 27.7
CC(C)(C)c1cc(Oc2c(Cl)cc(N(CC(=O)O)C(=O)Oc3ccc(O)cc3)cc2Cl)ccc1O | 80.5
Cc1cc(N(CC(=O)O)C(=O)Oc2ccc(O)cc2)cc(C)c1Oc1ccc(O)c(C(C)C)c1 | 41.4
CCOC(=O)N(CC(=O)O)c1cc(Cl)c(Oc2ccc(O)c(C(=O)c3ccc(F)cc3)c2)c(Cl)c1 | 23.5

Could you report fold induction at 0.01 µM for every entry in the following list?
1. O=C(O)CN(C(=O)Oc1ccc(O)cc1)c1cc(Cl)c(Oc2ccc(O)c(S(=O)(=O)N3CCCCCC3)c2)c(Cl)c1
2. O=C(O)CN(C(=O)Oc1ccc(O)cc1)c1cc(Cl)c(Oc2ccc(O)c(S(=O)(=O)N3CCCCC3)c2)c(Cl)c1
3. CC(C)(C)c1cc(Oc2c(Cl)cc(N(CC(=O)O)CC(=O)O)cc2Cl)ccc1O
4. CCOC(=O)N(CC(=O)O)c1cc(Cl)c(Oc2ccc(O)c(C(=O)c3cccc(Cl)c3)c2)c(Cl)c1
5. O=C(O)CN(CC(=O)O)c1cc(Cl)c(Oc2ccc(O)c(C(=O)c3ccc(Cl)cc3)c2)c(Cl)c1
6. CCC(C)c1cc(Oc2c(C)cc(N(CC(=O)O)CC(=O)O)cc2C)ccc1O (stereo not drawn)
7. CCOC(=O)N(CC(=O)O)c1cc(Cl)c(Oc2ccc(O)c(-c3ccccc3)c2)c(Cl)c1

1. 14.8
2. 73.5
3. 21.3
4. 26.3
5. 20.9
6. 153
7. 16.4

* * *

Can you tell me fold induction at 0.001 µM for the items I'm about to list?
Tested Target: UniProt P10828
Method Description: In vitro TR-β activity (in-house protocol)
Type: cell-based
Run Conditions: Conc. 1 nM; read-out: TR-β Fold Induction w.r.t T3(100 nm)

Compound | Tested Target | fold induction at 0.001 µM
CCOC(=O)N(CC(=O)O)c1cc(Cl)c(Oc2ccc(O)c(C(=O)c3ccc(Cl)cc3)c2)c(Cl)c1 | UniProt P10828 | 19.9
O=C(O)CN(CC(=O)O)c1cc(Cl)c(Oc2ccc(O)c(C(=O)c3ccc(Cl)cc3)c2)c(Cl)c1 | UniProt P10828 | 10.4
CCC(C)c1cc(Oc2c(C)cc(N(CC(=O)O)CC(=O)O)cc2C)ccc1O (stereo not shown) | UniProt P10828 | 33.4
CC(C)NS(=O)(=O)c1cc(Oc2c(Cl)cc(N(CC(=O)O)C(=O)Oc3ccc(O)cc3)cc2Cl)ccc1O | UniProt P10828 | 13.5
CC(C)c1cc(Oc2c(Cl)cc(N(CC(=O)O)CC(=O)O)cc2Cl)ccc1O | UniProt P10828 | 12.1

Please give fold induction at 0.001 µM for each item listed below.
1. CCOC(=O)N(CC(=O)O)c1cc(Cl)c(Oc2ccc(O)c(C(=O)c3cccc(Cl)c3)c2)c(Cl)c1
2. CC(C)(C)c1cc(Oc2c(Cl)cc(N(CC(=O)O)CC(=O)O)cc2Cl)ccc1O

[10.9, 8.37]

Value sought for every listed compound: fold induction at 0.001 µM.
1. O=C(O)CN(C(=O)Oc1ccc(O)cc1)c1cc(Cl)c(Oc2ccc(O)c(S(=O)(=O)N3CCCCC3)c2)c(Cl)c1
2. CCc1cc(Oc2c(Cl)cc(N(CC(=O)O)C(=O)Oc3ccc(O)cc3)cc2Cl)ccc1O
3. O=C(O)CN(CC(=O)O)c1cc(Cl)c(Oc2ccc(O)c(S(=O)(=O)N3CCCCC3)c2)c(Cl)c1

1. 23.3
2. 9.02
3. 8.63
